Molecular target: HLA-B*45:01
Test: IEDB peptide-MHC binding, purified MHC/competitive/radioactivity; bounds were set here for any values at or beyond the usual limits of such assays
Conditions: source organism: Human immunodeficiency virus 1
# maps each entry to its IC50
Reply numerically in nM, unit not repeated.

Provide IC50, recorded with HLA-B*45:01, of AENLWVTVY 68

Provide IC50, recorded with HLA-B*45:01, of AENLYVTVF 69

====

# maps each entry to its IC50
Molecular target: HLA-B*44:03
Test: IEDB peptide-MHC binding, purified MHC/competitive/radioactivity; bounds were set here for any values at or beyond the usual limits of such assays
Conditions: source organism: Human immunodeficiency virus 1
Reply numerically in nM, unit not repeated.

Answered cases to consult:
>  <Sequence>
AENLYVTVF

>  <Measurement target>
HLA-B*44:03

>  <Unit tag>
nM

>  <IC50>
47

$$$$
>  <Sequence>
WEFVNTPPL

>  <Measurement target>
HLA-B*44:03

>  <Unit tag>
nM

>  <IC50>
378

$$$$

Provide IC50, recorded with HLA-B*44:03, of NETPGIRYQY 62

Provide IC50, recorded with HLA-B*44:03, of AENLWVTVY 160

Provide IC50, recorded with HLA-B*44:03, of TERQANFL 2210

Provide IC50, recorded with HLA-B*44:03, of QEILDLWVY 172

Provide IC50, recorded with HLA-B*44:03, of IEAEVIPA 6400
